Attribute: kon
Biological target: Biotinylated recombinant human CD3εδ (Acro Biosystems, CDD-H82W6) (human) (UniProt P07766)
Sequence (P07766 23-126, stated change not applied, chain 1 of 2): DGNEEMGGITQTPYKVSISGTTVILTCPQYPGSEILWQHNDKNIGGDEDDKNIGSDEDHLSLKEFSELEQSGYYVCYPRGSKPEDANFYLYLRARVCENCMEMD
Sequence (P04234 22-105, stated change not applied, chain 2 of 2, further chain): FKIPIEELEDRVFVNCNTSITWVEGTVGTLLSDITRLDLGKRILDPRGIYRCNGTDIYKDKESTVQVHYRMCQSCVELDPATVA
Assay: Octet BLI, biotinylated CD3εδ on streptavidin sensors, 1:1 model
Give just the numeric value; M⁻¹ s⁻¹ need not be written.

Consider the worked cases shown below.
• EGFR-CD3 DuetMab with anti-CD3 variant AZ Vκ 17 + AZ VH R82 (bispecific antibody, part only; not given: anti-EGFR arm, constant regions, V domains shown, not shown: another chain or arm of the molecule; a dimerising Fc or GST; small tags and cut ends) VH: EVQLVESGGALVKPGGSLRLSCAASGFTFTRAWMHWVRQAPGKQLEWVAQIKDRSQTYATYYAESVKGRFTISRDDSKNTLYLQMNSLKTEDTAVYYCRGVYYANTPFDYWGQGTLVTVSS VL: DIVMTQSPLSLPVTPGEPASISCRSSQSLVHNTGNTYLSWYLQKPGQSPQSLIYKVSNRASGVPDRFSGSGSGTDFTLKISRVEAEDVGVYYCGQGTQAPFTFGSGTKVEIK = 16900
• EGFR-CD3 DuetMab with anti-CD3 variant AZ Vκ 29 + AZ VH SN79 (bispecific antibody, part only; not given: anti-EGFR arm, constant regions, V domains shown, not shown: another chain or arm of the molecule; a dimerising Fc or GST; small tags and cut ends) VH: EVQLVESGGALVKPGGSLRLSCAASGFTFSNAWMHWVRQAPGKQLEWVAQIKDRSQTYATYYAESVKGRFTISRDDSKNTLYLQMNSLKTEDTAVYYCRGVYYAVTPFDYWGQGTLVTVSS VL: DIVMTQSPLSLPVTPGEPASISCRSSQSLVHNTGNTYLSWYLQKPGQSPQSLIYKVSNRASGVPDRFSGSGSGTDFTLKISRVEAEDVGVYYCGQGTQFPFTFGSGTKVEIK = 42800

# context switch: different binder, same kon
# kon (binder: EGFR-CD3 DuetMab with anti-CD3 variant AZ Vκ 29 + AZ VH R82 (bispecific antibody, part only; not given: anti-EGFR arm, constant regions, V domains shown, not shown: another chain or arm of the molecule; a dimerising Fc or GST; small tags and cut ends) VH: EVQLVESGGALVKPGGSLRLSCAASGFTFTRAWMHWVRQAPGKQLEWVAQIKDRSQTYATYYAESVKGRFTISRDDSKNTLYLQMNSLKTEDTAVYYCRGVYYANTPFDYWGQGTLVTVSS VL: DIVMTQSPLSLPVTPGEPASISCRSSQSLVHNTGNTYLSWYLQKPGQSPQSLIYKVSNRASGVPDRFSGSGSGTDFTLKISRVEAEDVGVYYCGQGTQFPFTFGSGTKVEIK ) is 38800

// provenance: patent US20250019438A1
